Below, each entry is listed with its recorded Percent Effect.
- System: Wolbachia pipientis
- assay_method_text: Anti-Wolbachia Cell-Based Screen
- Format: functional
- Design: scale not given: in the data most compounds retested in dose-response had high values
- condition: 5 µM
Screen size: about 48,000 compounds; about 13,000 (27%) showed an effect of 50% or more. Some of the results follow.
Please give a number only; it is taken to be in %.

INSERT INTO measurements (compound, metric, result_value) VALUES
  ('CC(C)C(=O)N1CCC2(CC1)NC(=O)c1ccccc12.Cl', 'Percent Effect', -14.83),
  ('CCc1cnc(CNc2ccc(C(=O)N3CCCC(C)C3)cc2C)o1 (configuration not stated)', 'Percent Effect', 0.007999);

Notebook entry, Wolbachia pipientis assay: Percent Effect of Cc1ncc(C(=O)N2C[C@H](CO)C[C@H](CN3CCOCC3)C2)c(=O)[nH]1 = ?
-13.12

Also need Cc1nc(C)c(C(=O)N2CCCC2c2nnc3n2CCCCC3)s1 (configuration not stated) , thanks.
13.74
